# credit: patent US20250011316A1

System: human SK—OV-3 ovarian cancer cells
Experiment: Cellular Activity Assay (cytotoxicity, crystal violet)
Assay type: cell-based
Conditions: Homo sapiens; SK—OV-3 cells, treated for 48 hr, 0.1-100 μM, crystal violet absorbance at 540 nm
testReadout: EC50

Answer with the recorded EC50 for the compound listed here: C=C(NC(=O)c1csc(-c2ccc(CNC(=O)CCCCCCl)cc2)n1)C(=O)NC(=C)C(=O)OC 1 to 10 µM

Answer with the recorded EC50 for the compound listed here: C=C(NC(=O)c1csc(C2CCCN(C(=O)OC(C)(C)C)C2)n1)C(=O)NC(=C)C(=O)OC (centres unmarked) 10 to 25 µM

Answer with the recorded EC50 for the compound listed here: C=C(NC(=O)c1csc(-c2ccc(COC(=O)NCCCOC)cc2)n1)C(=O)NC(=C)C(=O)OC 1 to 10 µM

Answer with the recorded EC50 for the compound listed here: C=C(NC(=O)c1csc(N2CCC(COC(=O)NCCCOC)CC2)n1)C(=O)NC(=C)C(=O)OC 25 to 100 µM

Answer with the recorded EC50 for the compound listed here: C=C(NC(=O)c1csc(N2CC[C@@H](NC(=O)OCC)C2)n1)C(=O)NC(=C)C(=O)OC 1 to 10 µM

Answer with the recorded EC50 for the compound listed here: C=C(NC(=O)c1csc(-c2cccc(CNC(=O)OC(C)(C)C)c2)n1)C(=O)NC(=C)C(=O)OC 1 to 10 µM

Answer with the recorded EC50 for the compound listed here: C=C(NC(=O)c1csc(N2CCC(CNC(=O)C3CCOCC3)CC2)n1)C(=O)NC(=C)C(=O)OC 10 to 25 µM

Answer with the recorded EC50 for the compound listed here: C=C(NC(=O)c1csc(-c2ccc(CNC(=O)CCCCCN=[N+]=[N-])cc2)n1)C(=O)NC(=C)C(=O)OC 1 to 10 µM

Answer with the recorded EC50 for the compound listed here: C=C(NC(=O)c1csc(N2CCC(CNC(=O)CCCCCCl)CC2)n1)C(=O)NC(=C)C(=O)OC 10 to 25 µM

Answer with the recorded EC50 for the compound listed here: C=C(NC(=O)c1csc(-c2ccc(NC(=O)CCCCCBr)cc2)n1)C(=O)NC(=C)C(=O)OC 1 to 10 µM

Answer with the recorded EC50 for the compound listed here: C=C(NC(=O)c1csc(N2C[C@@H](C)N(C(=O)OC(C)(C)C)[C@@H](C)C2)n1)C(=O)NC(=C)C(=O)OC 1 to 10 µM

Answer with the recorded EC50 for the compound listed here: C=C(NC(=O)c1csc(N2CCC(C(=O)NCCCOC(C)C)CC2)n1)C(=O)NC(=C)C(=O)OC 1 to 10 µM

Answer with the recorded EC50 for the compound listed here: C=C(NC(=O)c1csc(-c2ccc(CNC(=O)OC(C)(C)C)cc2)n1)C(=O)NC(=C)C(=O)OC 1 to 10 µM

Answer with the recorded EC50 for the compound listed here: C=C(NC(=O)c1csc(N2CCC[C@@H](NC(=O)OC(C)(C)C)C2)n1)C(=O)NC(=C)C(=O)OC 1 to 10 µM

Answer with the recorded EC50 for the compound listed here: C=C(NC(=O)c1csc(-c2ccc(C(=O)NCCOC)cc2)n1)C(=O)NC(=C)C(=O)OC 1 to 10 µM

Answer with the recorded EC50 for the compound listed here: C=C(NC(=O)c1csc(C2=CCN(C(=O)OC(C)(C)C)CC2)n1)C(=O)NC(=C)C(=O)OC 1 to 10 µM

Answer with the recorded EC50 for the compound listed here: C=C(NC(=O)c1csc(N2CCC(C(=O)NC3CCOCC3)CC2)n1)C(=O)NC(=C)C(=O)OC 10 to 25 µM

Answer with the recorded EC50 for the compound listed here: C=C(NC(=O)c1csc(-c2ccc(CNC(=O)C3CCOCC3)cc2)n1)C(=O)NC(=C)C(=O)OC 1 to 10 µM

Answer with the recorded EC50 for the compound listed here: C=C(NC(=O)c1csc(-c2ccc(CNC(=O)OCC3CCOCC3)cc2)n1)C(=O)NC(=C)C(=O)OC 1 to 10 µM

Answer with the recorded EC50 for the compound listed here: C=C(NC(=O)c1csc(-c2ccc(CNC(=O)OCCCCCCN=[N+]=[N-])cc2)n1)C(=O)NC(=C)C(=O)OC 1 to 10 µM

Answer with the recorded EC50 for the compound listed here: C=C(NC(=O)c1csc(N2CCCC(C(=O)NCC(C)C)C2)n1)C(=O)NC(=C)C(=O)OC (centres unmarked) 1 to 10 µM

Answer with the recorded EC50 for the compound listed here: C=C(NC(=O)c1csc(N2CCC(NC(=O)CCCCCN=[N+]=[N-])CC2)n1)C(=O)NC(=C)C(=O)OC 1 to 10 µM

Answer with the recorded EC50 for the compound listed here: C=C(NC(=O)c1csc(N2CCC[C@H](NC(=O)C3CCOCC3)C2)n1)C(=O)NC(=C)C(=O)OC 25 to 100 µM

Answer with the recorded EC50 for the compound listed here: C=C(NC(=O)c1csc(N2CCN(C(=O)OC(C)(C)C)CC2)n1)C(=O)NC(=C)C(=O)OC 25 to 100 µM

Answer with the recorded EC50 for the compound listed here: C=C(NC(=O)c1csc(N2CCC(C(=O)NCCNC(=O)OC(C)(C)C)CC2)n1)C(=O)NC(=C)C(=O)OC 1 to 10 µM

Answer with the recorded EC50 for the compound listed here: C=C(NC(=O)c1csc(C2CCN(C(=O)OC(C)(C)C)CC2)n1)C(=O)NC(=C)C(=O)OC 1 to 10 µM

Answer with the recorded EC50 for the compound listed here: C=C(NC(=O)c1csc(N2CCC[C@H](NC(=O)OC(C)(C)C)C2)n1)C(=O)NC(=C)C(=O)OC 1 to 10 µM

Answer with the recorded EC50 for the compound listed here: C=C(NC(=O)c1csc(-c2ccc(C(=O)NCCCCCCOS(C)(=O)=O)nc2)n1)C(=O)NC(=C)C(=O)OC 1 to 10 µM

Answer with the recorded EC50 for the compound listed here: C=C(NC(=O)c1csc(-c2cccc(C(=O)OC(C)(C)C)c2)n1)C(=O)NC(=C)C(=O)OC 25 to 100 µM

---

Biological target: purified human PRX3 (Homo sapiens, UniProt P30048)
Construct: made in house
Sequence (P30048 62-256): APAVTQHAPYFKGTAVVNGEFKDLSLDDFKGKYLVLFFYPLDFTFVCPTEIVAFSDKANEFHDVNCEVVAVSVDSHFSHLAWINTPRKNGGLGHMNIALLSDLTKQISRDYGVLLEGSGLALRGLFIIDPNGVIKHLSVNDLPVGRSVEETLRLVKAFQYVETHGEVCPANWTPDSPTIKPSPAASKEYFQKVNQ
Assay: Biochemical PRX3 Inhibition Assay (non-reducible crosslink by SDS PAGE + single adduct by MALDI-TOF MS)
Conditions: 100 μM PRX3 with TRX2/thioredoxin reductase/NADPH system and hydrogen peroxide, 1-2 hr at 37° C.
testReadout: PRX3 Inhibition (Crosslink + Mono-adduct)

Solved entries:
C=C(NC(=O)c1csc(-c2ccc(NC(=O)OC(C)(C)C)cc2)n1)C(=O)NC(=C)C(=O)OC [Compound 5]
+++ (>90%)
C=C(NC(=O)c1csc(N2CCC(CNC(=O)COCCOC)CC2)n1)C(=O)NC(=C)C(=O)OC [Compound 41]
+++ (>90%)
C=C(NC(=O)c1csc(N2CCC(NC(=O)C3CCOCC3)CC2)n1)C(=O)NC(=C)C(=O)OC [Compound 46]
+++ (>90%)
C=C(NC(=O)c1csc(N2CCC(CNC(=O)OCC)CC2)n1)C(=O)NC(=C)C(=O)OC [Compound 22]
+++ (>90%)
C=C(NC(=O)c1csc(-c2ccc(COC(=O)NCCCOC)cc2)n1)C(=O)NC(=C)C(=O)OC [Compound 42]
+++ (>90%)
C=C(NC(=O)c1csc(N2CCC(CNC(=O)C3CCOCC3)CC2)n1)C(=O)NC(=C)C(=O)OC [Compound 52]
+++ (>90%)

Answer with the recorded PRX3 Inhibition (Crosslink + Mono-adduct) for the molecule listed here: C=C(NC(=O)c1csc(-c2ccc(CNC(=O)CCCCCN=[N+]=[N-])cc2)n1)C(=O)NC(=C)C(=O)OC [Compound 39] ++ (50-90%)

Answer with the recorded PRX3 Inhibition (Crosslink + Mono-adduct) for the molecule listed here: C=C(NC(=O)c1csc(N2CC[C@@H](NC(=O)OCC)C2)n1)C(=O)NC(=C)C(=O)OC [Compound 23] +++ (>90%)

Answer with the recorded PRX3 Inhibition (Crosslink + Mono-adduct) for the molecule listed here: C=C(NC(=O)c1csc(N2CCC(COC(=O)NCCCOC)CC2)n1)C(=O)NC(=C)C(=O)OC [Compound 32] ++ (50-90%)

---

Would you mind telling me the reported solubility of each entry?
Assay: Solubility Assay (HPLC)
Format: physicochemical
Details: HEPES/NaCl buffer, aqueous with cosolvent or surfactant or cyclodextrin, kinetic from dmso stock; 20 mM HEPES, 100 mM NaCl, pH 7.5, 18-24 hours at ambient temperature; read-out: Solubility

Answer with the recorded solubility for the compound listed here: C=C(NC(=O)c1csc(-c2ccc(CNC(=O)OCCCCCCN=[N+]=[N-])cc2)n1)C(=O)NC(=C)C(=O)OC [Compound 50] < 100 µM

Answer with the recorded solubility for the compound listed here: C=C(NC(=O)c1csc(N2CCC[C@H](NC(=O)C3CCOCC3)C2)n1)C(=O)NC(=C)C(=O)OC [Compound 54] < 100 µM

Answer with the recorded solubility for the compound listed here: C=C(NC(=O)c1csc(N2CCC[C@@H](NC(=O)OCCOC)C2)n1)C(=O)NC(=C)C(=O)OC [Compound 31] > 1000 µM

Answer with the recorded solubility for the compound listed here: C=C(NC(=O)c1csc(N2CCC(NC(=O)C3COCCO3)CC2)n1)C(=O)NC(=C)C(=O)OC (stereo not drawn) [Compound 58] 100 to 1000 µM

Answer with the recorded solubility for the compound listed here: C=C(NC(=O)c1csc(-c2ccc(NC(=O)CCCCCBr)cc2)n1)C(=O)NC(=C)C(=O)OC [Compound 4] < 100 µM

Answer with the recorded solubility for the compound listed here: C=C(NC(=O)c1csc(-c2ccc(CNC(=O)OC(C)(C)C)cc2)n1)C(=O)NC(=C)C(=O)OC [Compound 8] < 100 µM

Answer with the recorded solubility for the compound listed here: C=C(NC(=O)c1csc(N2CCC(CNC(=O)COCCOC)CC2)n1)C(=O)NC(=C)C(=O)OC [Compound 41] > 1000 µM

Answer with the recorded solubility for the compound listed here: C=C(NC(=O)c1csc(N2CCC(CNC(=O)C3CCOCC3)CC2)n1)C(=O)NC(=C)C(=O)OC [Compound 52] < 100 µM

Answer with the recorded solubility for the compound listed here: C=C(NC(=O)c1csc(N2CCC(C(=O)NCCNC(=O)OC(C)(C)C)CC2)n1)C(=O)NC(=C)C(=O)OC [Compound 15] < 100 µM

Answer with the recorded solubility for the compound listed here: C=C(NC(=O)c1csc(N2CCC(NC(=O)CC3CCOCC3)CC2)n1)C(=O)NC(=C)C(=O)OC [Compound 51] < 100 µM

Answer with the recorded solubility for the compound listed here: C=C(NC(=O)c1csc(N2CCC(CNC(=O)OCC)CC2)n1)C(=O)NC(=C)C(=O)OC [Compound 22] < 100 µM

Answer with the recorded solubility for the compound listed here: C=C(NC(=O)c1csc(N2CCC(NC(=O)CCCCCNC(=O)OC(C)(C)C)CC2)n1)C(=O)NC(=C)C(=O)OC [Compound 13] 100 to 1000 µM

Answer with the recorded solubility for the compound listed here: C=C(NC(=O)c1csc(C2CCCN(C(=O)OC(C)(C)C)C2)n1)C(=O)NC(=C)C(=O)OC (stereo not drawn) [Compound 3] 100 to 1000 µM

Answer with the recorded solubility for the compound listed here: C=C(NC(=O)c1csc(-c2ccc(NC(=O)OC(C)(C)C)nc2)n1)C(=O)NC(=C)C(=O)OC [Compound 2] < 100 µM

Answer with the recorded solubility for the compound listed here: C=C(NC(=O)c1csc(-c2ccc(NC(=O)CCCCCCl)cc2)n1)C(=O)NC(=C)C(=O)OC [Compound 48] < 100 µM
